target: UniProt P24941; experiment: Inhibition of human CDK2 using TMB as substrate preincubated for 210 mins followed by substrate addition and measured after 15 to 25 mins by spectrophotometric analysis
Measured quantity: pIC50
# reply with the number alone; pIC50 is -log10 of concentration in mol/L

Which pIC50 is reported for this molecule? Cc1ccc(S(=O)(=O)Nc2ccc(-c3ccnc(Nc4ccc(S(=O)(=O)Nc5nccc(C)n5)cc4)c3C#N)cc2)cc1 5.75

New cases:
Which pIC50 is reported for this molecule? COc1ccccc1/C=C/C(=C(C#N)C#N)c1ccc(NS(=O)(=O)c2ccc(C)cc2)cc1 5.53

----------
target: CDK9/cyclin T1 (Homo sapiens, UniProt P50750); experiment: Inhibition of CDK9/cyclin T1 (unknown origin) assessed as inhibition constant
Sequence (O60563 whole entry): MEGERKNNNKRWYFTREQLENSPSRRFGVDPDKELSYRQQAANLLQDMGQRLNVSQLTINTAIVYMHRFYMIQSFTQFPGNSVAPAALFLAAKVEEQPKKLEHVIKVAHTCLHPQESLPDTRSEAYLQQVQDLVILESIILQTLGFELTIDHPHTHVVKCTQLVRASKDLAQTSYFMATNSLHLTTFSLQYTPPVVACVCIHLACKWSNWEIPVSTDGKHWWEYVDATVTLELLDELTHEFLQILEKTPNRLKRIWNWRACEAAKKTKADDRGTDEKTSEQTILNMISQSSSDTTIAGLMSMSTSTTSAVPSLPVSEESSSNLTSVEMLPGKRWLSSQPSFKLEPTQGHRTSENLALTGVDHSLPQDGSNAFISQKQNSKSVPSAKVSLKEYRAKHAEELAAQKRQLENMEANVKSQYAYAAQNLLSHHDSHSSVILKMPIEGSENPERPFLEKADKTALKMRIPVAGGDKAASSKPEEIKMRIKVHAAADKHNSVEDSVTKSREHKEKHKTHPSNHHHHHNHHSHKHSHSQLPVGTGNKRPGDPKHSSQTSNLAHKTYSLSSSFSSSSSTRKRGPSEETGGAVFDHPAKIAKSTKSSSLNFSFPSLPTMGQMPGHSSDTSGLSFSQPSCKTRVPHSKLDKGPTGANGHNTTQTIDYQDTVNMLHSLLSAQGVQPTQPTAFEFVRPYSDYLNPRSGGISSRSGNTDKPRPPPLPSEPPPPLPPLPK
Sequence (P50750 whole entry): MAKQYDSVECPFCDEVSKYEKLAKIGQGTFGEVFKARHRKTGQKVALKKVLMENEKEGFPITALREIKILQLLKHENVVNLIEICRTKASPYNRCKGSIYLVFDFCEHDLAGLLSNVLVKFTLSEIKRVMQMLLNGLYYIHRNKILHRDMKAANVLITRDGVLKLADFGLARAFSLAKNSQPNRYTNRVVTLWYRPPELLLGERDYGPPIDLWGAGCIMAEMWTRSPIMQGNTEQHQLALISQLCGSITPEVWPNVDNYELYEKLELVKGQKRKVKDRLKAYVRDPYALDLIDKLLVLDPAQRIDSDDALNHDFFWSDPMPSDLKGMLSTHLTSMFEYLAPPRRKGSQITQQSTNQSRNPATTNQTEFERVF
Measured quantity: Ki (nM)
Please respond with the number in nM and leave the unit unwritten.

Below, each entry is followed by its recorded Ki result.
Field: Ki (CDK9/cyclin T1 (Homo sapiens, UniProt P50750)). Entry: C/C(=N\N=C\c1ccccc1)c1c(O)c2ccccc2oc1=O 3.26

Ok, now CN(C)c1ccc(-c2cc(-c3c(O)c4ccccc4oc3=O)nc(N)c2C#N)cc1 3.26

Switching to the query record.
Field: Ki (CDK9/cyclin T1 (Homo sapiens, UniProt P50750)). Entry: COc1ccc(C2CC(c3c(O)c4ccccc4oc3=O)=NN2c2ccccc2)cc1OC (stereo not drawn) 3.26

----------
test system: U-266; test: Cytotoxicity against human U-266 cells assessed as reduction in cell growth incubated for 72 hrs by Calcein AM assay; format: functional, cell-based; conditions: U-266, 72 h
Measured quantity: IC50 (µM)
Please respond with the number in µM and leave the unit unwritten.

Which IC50 is reported for this molecule? CC[C@H](CO)Nc1nc(NCc2ccccc2N)c2[nH]nc(C(C)C)c2n1 5

----------
assay: AUC in Wistar rat at 20 mg/kg,po and measured upto 24 hrs by LC/MS/MS analysis; type: ADME, organism-based; design: time < 24 hrs, dose 20 mg/kg, route po; settings: in vivo
Measured quantity: AUC at 24 h (µM·h)
Please respond with the number in µM·h and leave the unit unwritten.

Which AUC at 24 h is reported for this compound? CNc1nc(C)c(-c2nc(Nc3ccc(N4CCC(N(C)C)CC4)cn3)ncc2F)s1 4.4

----------
test system: LS174T; test: Antitumor activity against human LS174T cells assessed as reduction in cell viability by MTT assay; type: functional, cell-based
Measured quantity: pIC50
# reply with the number alone; pIC50 is -log10 of concentration in mol/L

Field: pIC50 (LS174T). Entry: CN(Cc1ccccc1)C(=O)CCc1c[nH]c2ccccc12 4.96

----------
tested on: MCF7; experiment: Antiproliferative activity against human MCF7 cells assessed reduction in cell proliferation; assay type: functional, cell-based
Measured quantity: IC50
Please state the value followed by its unit.

Which IC50 is reported for this compound? O=C(CCCn1cc(CNC2CC2)c(-c2ccccc2)n1)NO 2960 nM

Switching to the query record.
Which IC50 is reported for this compound? O=C(CCCn1cc(CNC2CCCCC2)c(-c2ccccc2)n1)NO 1120 nM

----------
tested on: A549; test: Antiproliferative activity against human A549 cells assessed as reduction in cell viability incubated for 72 hrs by MTT assay; format: functional, cell-based; details: A549, 72 h
Measured quantity: pIC50
# reply with the number alone; pIC50 is -log10 of concentration in mol/L

Which pIC50 is reported for this molecule? CCC(CO)Nc1nc(NCc2ccccn2)c2ncn(CC)c2c1[N+](=O)[O-] (stereo unspecified) 5.41
